target-of-assay: Dipeptidyl peptidase 1 (Homo sapiens, UniProt P53634)
Sequence (P53634 25-134 limits assumed): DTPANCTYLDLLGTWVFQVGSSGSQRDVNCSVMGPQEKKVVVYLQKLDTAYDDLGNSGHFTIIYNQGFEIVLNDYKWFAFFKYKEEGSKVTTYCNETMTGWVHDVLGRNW
Sequence (P53634 231-394 limits assumed): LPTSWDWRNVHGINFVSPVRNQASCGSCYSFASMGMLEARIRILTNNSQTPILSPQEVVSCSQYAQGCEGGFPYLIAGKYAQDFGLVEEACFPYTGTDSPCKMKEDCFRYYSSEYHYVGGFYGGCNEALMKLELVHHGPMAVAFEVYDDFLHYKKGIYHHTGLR
Sequence (P53634 395-463 limits assumed): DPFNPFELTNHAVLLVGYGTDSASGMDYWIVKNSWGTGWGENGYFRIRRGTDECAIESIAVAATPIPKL
protocol-description: Inhibition of human recombinant cathepsin C
recorded-endpoint: IC50 (µM)
Use µM as the unit, but write only the number.

q: Recorded IC50 of `CC(C)CO[C@H]1CCN2C[C@H]1OC2=O` , please.
a: 0.191

q: Field entry: `S=C1O[C@@H]2CN1CC[C@@H]2Oc1ccccc1`
a: 0.606

q: Cool, now `O=C1O[C@@H]2CN1CC[C@@H]2Oc1ccccc1`
a: 0.029

q: // query: Cc1cccc(O[C@H]2CCN3C[C@@H]2OC3=O)c1C (racemic)
a: 1.73

q: Record: Cc1cccc(O[C@H]2CCN3C[C@H]2OC3=O)c1C (relative stereo)
a: 0.018

q: Entry to check: `O=C1O[C@@H]2CN1CC[C@@H]2OCc1ccccc1`
a: 0.403

====

target-of-assay: Cathepsin S (Homo sapiens, UniProt P25774)
Sequence (P25774 whole entry): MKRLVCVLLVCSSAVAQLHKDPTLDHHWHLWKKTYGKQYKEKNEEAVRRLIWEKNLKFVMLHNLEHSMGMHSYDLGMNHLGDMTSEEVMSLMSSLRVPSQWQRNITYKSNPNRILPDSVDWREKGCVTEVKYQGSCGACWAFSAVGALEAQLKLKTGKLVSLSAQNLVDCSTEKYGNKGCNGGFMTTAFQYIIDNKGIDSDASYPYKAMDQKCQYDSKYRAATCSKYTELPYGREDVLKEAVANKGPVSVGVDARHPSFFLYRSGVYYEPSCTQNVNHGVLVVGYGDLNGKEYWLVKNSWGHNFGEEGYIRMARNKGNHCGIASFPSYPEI
protocol-description: Inhibition of human recombinant cathepsin S
Exercise: for every item that follows, state its recorded pIC50.
Just the number, please; pIC50 means minus log10 of the concentration in mol/L.

q: Please state recorded pIC50 (tested on Cathepsin S (Homo sapiens, UniProt P25774)) of `O=C1O[C@@H]2CN1CC[C@@H]2OCc1ccccc1`
a: 6.76

q: Moving on to Cc1cccc(O[C@H]2CCN3C[C@H]2OC3=O)c1C (relative stereo)
a: 7.80

q: Item: `CC(C)CO[C@H]1CCN2C[C@H]1OC2=O`
a: 6.53

q: Would you mind doing `O=C1O[C@H]2CN1CC[C@@H]2Br` as well?
a: 5.34

q: Quick one: `O=C1O[C@@H]2CN1CC[C@@H]2Oc1ccccc1`
a: 7.77

q: Again, but for Cc1cccc(O[C@H]2CCN3C[C@@H]2OC3=O)c1C (racemic)
a: 6.33

q: Follow-up item: `S=C1O[C@@H]2CN1CC[C@@H]2Oc1ccccc1`
a: 6.16

====

target-of-assay: UniProt:P07711
Sequence (P07711 whole entry): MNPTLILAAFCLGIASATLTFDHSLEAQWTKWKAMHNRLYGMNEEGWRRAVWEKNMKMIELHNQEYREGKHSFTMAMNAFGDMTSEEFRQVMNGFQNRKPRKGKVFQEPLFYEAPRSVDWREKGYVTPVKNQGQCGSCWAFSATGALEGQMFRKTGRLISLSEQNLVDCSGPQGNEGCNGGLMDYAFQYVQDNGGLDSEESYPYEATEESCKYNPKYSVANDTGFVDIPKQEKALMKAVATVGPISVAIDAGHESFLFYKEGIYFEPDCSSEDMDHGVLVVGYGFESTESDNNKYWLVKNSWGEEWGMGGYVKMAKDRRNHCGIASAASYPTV
protocol-description: Inhibition of human recombinant cathepsin L
recorded-endpoint: IC50

q: // lookup IC50 for Cc1cccc(OCC2CN(C)C(=O)O2)c1C (stereo not given)
a: > 100 µM

q: Next record, please: `O=C1O[C@H]2CN1CC[C@@H]2Br`
a: 5.82 µM

q: Now consider `Cc1cccc(O[C@@H]2CCNC[C@H]2O)c1C` and answer again.
a: > 100 µM

q: Try `S=C1O[C@@H]2CN1CC[C@@H]2Oc1ccccc1` next.
a: 0.994 µM

q: Next: `CC(C)CO[C@H]1CCN2C[C@H]1OC2=O`
a: 0.23 µM

q: What do you have for `O=C1O[C@@H]2CN1CC[C@@H]2Oc1ccccc1` ?
a: 0.026 µM

q: What do you get for Cc1cccc(O[C@H]2CCN3C[C@@H]2OC3=O)c1C (racemic) ?
a: 1.27 µM

q: And `O=C1O[C@@H]2CN1CC[C@@H]2OCc1ccccc1` ?
a: 0.263 µM

q: # repeat for `Cc1cccc(O[C@@H]2CCNC[C@@H]2O)c1C`
a: > 100 µM

q: Try Cc1cccc(O[C@H]2CCN3C[C@H]2OC3=O)c1C (relative stereo) next.
a: 0.022 µM

====

target-of-assay: Cathepsin F (Homo sapiens, UniProt Q9UBX1)
Sequence (Q9UBX1 271-484 limits assumed): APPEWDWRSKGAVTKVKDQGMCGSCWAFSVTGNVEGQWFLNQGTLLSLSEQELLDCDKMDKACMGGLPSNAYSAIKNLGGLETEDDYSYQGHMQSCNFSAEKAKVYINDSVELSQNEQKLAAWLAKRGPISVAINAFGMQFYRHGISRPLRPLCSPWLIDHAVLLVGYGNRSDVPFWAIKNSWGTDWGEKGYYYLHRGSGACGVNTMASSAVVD
protocol-description: Inhibition of human recombinant cathepsin F
Can you tell me pIC50 for the items I'm about to list?
Please express pIC50 as -log10 of the molar concentration.

q: Please give the measured pIC50 for this molecule: `O=C1O[C@@H]2CN1CC[C@@H]2Oc1ccccc1`
a: 6.31

q: Do the same for Cc1cccc(O[C@H]2CCN3C[C@H]2OC3=O)c1C (relative stereo) please
a: 6.48

q: Repeat for the following molecule: `O=C1O[C@@H]2CN1CC[C@@H]2OCc1ccccc1`
a: 5.42

q: Another molecule: Cc1cccc(O[C@H]2CCN3C[C@@H]2OC3=O)c1C (racemic)
a: 5.23

q: Then `CC(C)CO[C@H]1CCN2C[C@H]1OC2=O` ?
a: 5.74

====

target-of-assay: UniProt P09668
Sequence (P09668 116-335 limits assumed, other chains not shown): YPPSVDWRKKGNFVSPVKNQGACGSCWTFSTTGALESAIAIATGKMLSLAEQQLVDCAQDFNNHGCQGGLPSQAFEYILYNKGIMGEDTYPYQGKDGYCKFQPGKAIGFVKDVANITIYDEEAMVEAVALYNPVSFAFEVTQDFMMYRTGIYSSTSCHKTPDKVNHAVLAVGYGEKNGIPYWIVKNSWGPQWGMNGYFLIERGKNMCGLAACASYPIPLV
protocol-description: Inhibition of human recombinant cathepsin H
pIC50: −log10 of the molar value.
recorded-endpoint: pIC50

q: I would be grateful if you could share the reported pIC50 for `O=C1O[C@@H]2CN1CC[C@@H]2OCc1ccccc1` .
a: < 5.00

q: Note, next up: `O=C1O[C@@H]2CN1CC[C@@H]2Oc1ccccc1`
a: 5.18

q: Next up: `Cc1cccc(O[C@@H]2CCNC[C@H]2O)c1C`
a: < 4.00

q: Next record, please: Cc1cccc(O[C@H]2CCN3C[C@@H]2OC3=O)c1C (racemic)
a: < 4.52

q: Moving on to `S=C1O[C@@H]2CN1CC[C@@H]2Oc1ccccc1`
a: < 4.00

q: Would you kindly repeat that for `CC(C)CO[C@H]1CCN2C[C@H]1OC2=O` ?
a: < 5.00

====

target-of-assay: Trypsin (Homo sapiens) (UniProt P07477+P07478+P35030)
protocol-description: Inhibition of trypsin
Format: protein assay
The source made the active and inactive calls. The rule behind the calls is not given here.
recorded-endpoint: Activity

{"compound": "Cc1cccc(O[C@H]2CCN3C[C@H]2OC3=O)c1C (relative stereo)", "target-of-assay": "Trypsin (Homo sapiens) (UniProt P07477+P07478+P35030)", "result": "inactive"}
{"compound": "Cc1cccc(OCC2CN(C)C(=O)O2)c1C (stereo not given)", "target-of-assay": "Trypsin (Homo sapiens) (UniProt P07477+P07478+P35030)", "result": "inactive"}
{"compound": "O=C1O[C@@H]2CN1CC[C@@H]2Oc1ccccc1", "target-of-assay": "Trypsin (Homo sapiens) (UniProt P07477+P07478+P35030)", "result": "inactive"}
{"compound": "S=C1O[C@@H]2CN1CC[C@@H]2Oc1ccccc1", "target-of-assay": "Trypsin (Homo sapiens) (UniProt P07477+P07478+P35030)", "result": "inactive"}
{"compound": "Cc1cccc(O[C@@H]2CCNC[C@H]2O)c1C", "target-of-assay": "Trypsin (Homo sapiens) (UniProt P07477+P07478+P35030)", "result": "inactive"}

q: Please give the measured Activity for this compound: `CC(C)CO[C@H]1CCN2C[C@H]1OC2=O`
a: inactive

q: Subsequent entry: Cc1cccc(O[C@H]2CCN3C[C@@H]2OC3=O)c1C (racemic)
a: inactive

q: What do you get for `Cc1cccc(O[C@@H]2CCNC[C@@H]2O)c1C` ?
a: inactive

q: And what about the compound `O=C1O[C@@H]2CN1CC[C@@H]2OCc1ccccc1` ?
a: inactive

q: Entry `O=C1O[C@H]2CN1CC[C@@H]2Br` please
a: inactive

====

Exercise: state measured IC50 for each of the compounds provided.
target-of-assay: Cathepsin L2 (Homo sapiens)
Sequence (O60911 whole entry): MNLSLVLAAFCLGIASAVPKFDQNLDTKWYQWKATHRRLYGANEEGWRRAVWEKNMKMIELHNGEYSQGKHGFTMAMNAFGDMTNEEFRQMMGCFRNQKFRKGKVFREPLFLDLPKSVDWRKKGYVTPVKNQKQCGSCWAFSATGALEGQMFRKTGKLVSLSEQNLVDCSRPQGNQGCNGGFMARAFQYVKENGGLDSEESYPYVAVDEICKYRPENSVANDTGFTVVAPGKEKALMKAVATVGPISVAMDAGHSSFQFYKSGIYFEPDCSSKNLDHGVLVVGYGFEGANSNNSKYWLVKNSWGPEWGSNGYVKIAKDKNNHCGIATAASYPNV
protocol-description: Inhibition of human recombinant cathepsin V
Your answer is read as nM, so omit the unit and give the number.

q: For `O=C1O[C@@H]2CN1CC[C@@H]2Oc1ccccc1` , what is its reported IC50?
a: 158

q: Field entry: Cc1cccc(O[C@H]2CCN3C[C@@H]2OC3=O)c1C (racemic)
a: 3320

q: Same lookup for `S=C1O[C@@H]2CN1CC[C@@H]2Oc1ccccc1` , please.
a: 5170

q: Now consider `O=C1O[C@@H]2CN1CC[C@@H]2OCc1ccccc1` .
a: 1290

q: Try Cc1cccc(O[C@H]2CCN3C[C@H]2OC3=O)c1C (relative stereo) next.
a: 131

q: `CC(C)CO[C@H]1CCN2C[C@H]1OC2=O` , same question.
a: 894

====

target-of-assay: Cathepsin K (Homo sapiens, UniProt P43235)
Sequence (P43235 whole entry): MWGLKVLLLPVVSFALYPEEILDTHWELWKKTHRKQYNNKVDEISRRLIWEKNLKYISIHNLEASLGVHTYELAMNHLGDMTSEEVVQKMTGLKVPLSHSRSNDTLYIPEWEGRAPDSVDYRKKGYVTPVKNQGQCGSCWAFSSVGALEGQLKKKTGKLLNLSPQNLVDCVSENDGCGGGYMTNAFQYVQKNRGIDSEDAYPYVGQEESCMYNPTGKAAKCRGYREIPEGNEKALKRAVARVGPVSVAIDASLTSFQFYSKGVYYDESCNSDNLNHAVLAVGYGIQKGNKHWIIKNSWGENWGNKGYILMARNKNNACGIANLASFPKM
protocol-description: Inhibition of human recombinant cathepsin K
Kindly state pIC50 for each of the entries shown.
Note on pIC50: it is the negative log10 of concentration, concentration in mol/L.

q: Request the reported pIC50 associated with Cc1cccc(O[C@H]2CCN3C[C@H]2OC3=O)c1C (relative stereo)
a: 7.42

q: Try this compound next: `CC(C)CO[C@H]1CCN2C[C@H]1OC2=O`
a: 5.90

q: Now try Cc1cccc(O[C@H]2CCN3C[C@@H]2OC3=O)c1C (racemic) .
a: 5.61

q: Do the same for `S=C1O[C@@H]2CN1CC[C@@H]2Oc1ccccc1` please
a: 5.74

q: Another: `O=C1O[C@@H]2CN1CC[C@@H]2Oc1ccccc1`
a: 6.98

q: Same thing, different compound: `O=C1O[C@@H]2CN1CC[C@@H]2OCc1ccccc1`
a: 6.29
